B1: library; numbered along this chain (parent)
chain: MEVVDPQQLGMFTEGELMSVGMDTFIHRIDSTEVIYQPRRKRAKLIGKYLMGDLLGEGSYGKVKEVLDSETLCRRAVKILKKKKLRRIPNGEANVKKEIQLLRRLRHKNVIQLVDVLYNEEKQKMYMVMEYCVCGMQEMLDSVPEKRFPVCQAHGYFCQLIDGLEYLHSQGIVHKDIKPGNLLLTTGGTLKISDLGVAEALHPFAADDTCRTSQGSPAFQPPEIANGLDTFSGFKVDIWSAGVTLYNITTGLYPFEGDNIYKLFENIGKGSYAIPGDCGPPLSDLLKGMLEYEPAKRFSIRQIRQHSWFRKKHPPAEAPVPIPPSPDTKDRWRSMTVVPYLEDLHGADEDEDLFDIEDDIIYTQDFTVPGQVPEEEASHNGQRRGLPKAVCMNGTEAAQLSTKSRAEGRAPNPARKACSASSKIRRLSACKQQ

Variants of: B1
Test: STK11 functional score (HeLa growth suppression), rescaled enrichment; synonymous median = 1, nonsense median = 0 (normalised score)
Conditions: with HeLa; variant type: missense
# binarize STK11 functional score: threshold 0.8 inclusive, high side yes, low side no

Query string: State whether the measured STK11 functional score reaches 0.8, counting equality as reaching it, for G135V
Result string: yes

Query string: Is it the case that L167V has STK11 functional score reaching or exceeding 0.8?
Result string: yes

Query string: Is the recorded value of STK11 functional score equal to or greater than 0.8 for this variant? D330A
Result string: yes

Query string: Hi, just wondering whether F264T shows STK11 functional score of 0.8 or higher.
Result string: yes

Query string: Is STK11 functional score at least 0.8? Consider P314N
Result string: yes

Query string: Please indicate if the recorded STK11 functional score for E98Q meets or exceeds 0.8.
Result string: no

Query string: Item Y261G with STK11 functional score of 0.8 or above?
Result string: yes

Query string: Given N226M , state whether its STK11 functional score is at least 0.8.
Result string: no

Query string: Dear colleague, could you confirm whether I172P has STK11 functional score at or above 0.8?
Result string: no

Query string: Record A76S ; criterion: STK11 functional score no lower than 0.8. Met?
Result string: yes
